Measured IC50 on sucrase (Homo sapiens) follows.
Sequence (P14410 whole entry, species assumed): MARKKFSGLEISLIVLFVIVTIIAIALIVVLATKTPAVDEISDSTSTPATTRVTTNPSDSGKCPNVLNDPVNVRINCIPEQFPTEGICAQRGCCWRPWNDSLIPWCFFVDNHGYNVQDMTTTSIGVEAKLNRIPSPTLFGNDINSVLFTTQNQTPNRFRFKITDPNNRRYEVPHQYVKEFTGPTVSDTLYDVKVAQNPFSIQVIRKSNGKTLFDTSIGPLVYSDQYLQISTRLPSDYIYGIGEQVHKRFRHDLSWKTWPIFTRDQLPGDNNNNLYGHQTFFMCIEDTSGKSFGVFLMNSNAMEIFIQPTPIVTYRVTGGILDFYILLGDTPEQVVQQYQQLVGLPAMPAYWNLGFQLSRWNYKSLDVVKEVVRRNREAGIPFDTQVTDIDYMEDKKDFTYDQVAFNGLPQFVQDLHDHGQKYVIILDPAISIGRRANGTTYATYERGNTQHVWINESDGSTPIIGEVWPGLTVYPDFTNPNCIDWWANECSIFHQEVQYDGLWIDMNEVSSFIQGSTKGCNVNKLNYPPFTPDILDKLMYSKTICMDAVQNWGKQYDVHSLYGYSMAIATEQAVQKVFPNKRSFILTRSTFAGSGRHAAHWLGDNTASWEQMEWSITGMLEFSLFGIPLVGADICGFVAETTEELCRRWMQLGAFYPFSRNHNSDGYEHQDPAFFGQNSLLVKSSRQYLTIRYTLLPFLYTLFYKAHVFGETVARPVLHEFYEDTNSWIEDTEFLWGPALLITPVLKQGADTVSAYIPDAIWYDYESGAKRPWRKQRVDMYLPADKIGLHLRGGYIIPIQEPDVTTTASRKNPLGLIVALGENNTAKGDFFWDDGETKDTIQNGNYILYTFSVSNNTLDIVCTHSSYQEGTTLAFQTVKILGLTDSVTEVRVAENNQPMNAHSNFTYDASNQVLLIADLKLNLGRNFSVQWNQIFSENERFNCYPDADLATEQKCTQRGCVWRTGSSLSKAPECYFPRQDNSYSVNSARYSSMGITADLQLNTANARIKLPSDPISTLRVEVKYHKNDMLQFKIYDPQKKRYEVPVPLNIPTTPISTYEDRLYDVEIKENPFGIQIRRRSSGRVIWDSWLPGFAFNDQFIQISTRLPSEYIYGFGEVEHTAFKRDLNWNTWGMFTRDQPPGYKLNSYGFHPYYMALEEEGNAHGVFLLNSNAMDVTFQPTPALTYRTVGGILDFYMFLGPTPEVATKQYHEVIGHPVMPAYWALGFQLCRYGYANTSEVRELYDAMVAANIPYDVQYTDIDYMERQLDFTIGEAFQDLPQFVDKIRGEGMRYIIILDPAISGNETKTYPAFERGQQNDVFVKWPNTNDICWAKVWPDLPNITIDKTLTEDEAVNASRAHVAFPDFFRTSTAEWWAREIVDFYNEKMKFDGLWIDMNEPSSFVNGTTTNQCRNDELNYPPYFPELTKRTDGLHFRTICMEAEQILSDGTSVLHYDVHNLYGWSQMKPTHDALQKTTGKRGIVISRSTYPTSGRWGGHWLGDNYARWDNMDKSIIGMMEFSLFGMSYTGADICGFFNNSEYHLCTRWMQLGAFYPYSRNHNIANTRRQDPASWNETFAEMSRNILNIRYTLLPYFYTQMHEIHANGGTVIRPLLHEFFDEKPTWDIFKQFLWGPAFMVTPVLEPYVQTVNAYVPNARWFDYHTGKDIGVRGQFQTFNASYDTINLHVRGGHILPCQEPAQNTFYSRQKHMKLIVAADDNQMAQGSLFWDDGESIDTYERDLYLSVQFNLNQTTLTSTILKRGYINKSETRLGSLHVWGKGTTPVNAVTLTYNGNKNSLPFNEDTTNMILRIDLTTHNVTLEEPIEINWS

Use the examples below as a reference point.
- molecule: "O=S(=O)([O-])OC(C(O)C[S+]1CC(O)C(O)C1CO)C(O)C(O)C(O)CO (single isomer, unassigned) [kotalanol, reference compound]"
  IC50: "0.754 µM"
- molecule: "O=S(=O)([O-])OC(C(O)C[S+]1CC(O)C(O)C1CO)C(O)C(O)C(O)CO (single isomer, unassigned) [Compound (6d)]"
  IC50: "32.3 µM"
- molecule: "O=S(=O)([O-])OC(C(O)C[S+]1CC(O)C(O)C1CO)C(O)C(O)C(O)CO (single isomer, unassigned) [Compound (6g)]"
  IC50: "> 236 µM"
- molecule: "O=S(=O)([O-])OC(C(O)C[S+]1CC(O)C(O)C1CO)C(O)C(O)C(O)CO (single isomer, unassigned) [Compound (6b)]"
  IC50: "136 µM"
- molecule: "O=S(=O)([O-])OC(C(O)C[S+]1CC(O)C(O)C1CO)C(O)C(O)C(O)CO (single isomer, unassigned) [Compound (6a)]"
  IC50: "66.9 µM"

Now for a further molecule.
[in] If you can, please state the reported IC50 value of O=S(=O)([O-])OC(C(O)C[S+]1CC(O)C(O)C1CO)C(O)C(O)C(O)CO (stereo not drawn) [Compound (6c)] .
[out] 214 µM

Attribution: patent US20100063302A1
